# experimental-system: T1, human GIP receptor (human, UniProt P48546 22-466)
# T1 sequence (looked up): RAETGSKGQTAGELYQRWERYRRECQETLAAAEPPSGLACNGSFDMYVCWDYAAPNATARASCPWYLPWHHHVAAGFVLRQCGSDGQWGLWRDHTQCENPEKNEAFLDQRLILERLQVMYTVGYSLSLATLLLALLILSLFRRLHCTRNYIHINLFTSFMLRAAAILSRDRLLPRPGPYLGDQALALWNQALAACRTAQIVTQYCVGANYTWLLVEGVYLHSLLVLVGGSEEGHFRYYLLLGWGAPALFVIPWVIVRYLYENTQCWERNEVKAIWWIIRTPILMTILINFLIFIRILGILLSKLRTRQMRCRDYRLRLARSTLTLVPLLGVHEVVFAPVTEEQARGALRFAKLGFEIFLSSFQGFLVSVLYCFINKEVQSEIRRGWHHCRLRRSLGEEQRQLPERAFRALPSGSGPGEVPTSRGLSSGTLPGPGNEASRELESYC
# protocol-details: cell-based or functional assay
Starred links: 1 amine or outer side, 2 acyl side, 3 side chain; linkers in the order of their positions; H or OH if unused. Non-standard residues stand in square brackets, D forms with d. Groups on a side chain read outwards from the residue. No end group written: not given here. *: point of attachment. C18 diacid = O=C(O)CCCCCCCCCCCCCCCCC(=O)*; γGlu = O=C(O)[C@H](CCC(=O)[*:2])N[*:1]; AEEA = NCCOCCOCC(=O)O; Aib = CC(C)(N)C(=O)O
Field: EC50 CreLuc hGIPR 0.5% hP. Provide a value for each of the binders that follow.

Data request: I have this binder here, Y[Aib]EGTFTSDYSI[Aib]LEKQAQ[Aib]AFVQWLIKGGPEEGASLRHYYNWLTRQRY-NH2 (not fully specified (residue 28)) [Compound 108] , and I need its recorded EC50 CreLuc hGIPR 0.5% hP.
Data returned: 0.3 nM

Data request: I have this binder here, YXEGTFTSDYSIXLEDQAQXAFVEWLIKGGPSSGASLRHYYNWLTRQRY (Aib at 2, 13, 20; K28 side chain: C20DA-gGlu-gGlu-gGlu-gGlu-gGlu-gGlu-eLys; C-terminal NH2) [Compound 90] , and I need its recorded EC50 CreLuc hGIPR 0.5% hP.
Data returned: 1.03 nM

Data request: I have this binder here, YXEGTFTSDYSIXLEKAAQXAFVEWLIKGGPSSGASLRHYYNWLTRQRY (Aib at 2, 13, 20; K28 side chain: C20DA-gGlu-gGlu-gGlu-gGlu-gGlu-gGlu-eLys; C-terminal NH2) [Compound 136] , and I need its recorded EC50 CreLuc hGIPR 0.5% hP.
Data returned: 0.31 nM

Data request: I have this binder here, Y[Aib]EGTFTSDYSI[Aib]LEKQAQ[Aib]AFVEWLIK([AEEA-AEEA-γGlu-γGlu-γGlu-C18 diacid])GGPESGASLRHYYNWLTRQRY-NH2 [Compound 166] , and I need its recorded EC50 CreLuc hGIPR 0.5% hP.
Data returned: 0.08 nM

Data request: I have this binder here, YXEGTFTSDYSIXLEKQAQXAFVEWLIKGGPSSGASIRHYYNWLTRQRY (Aib at 2, 13, 20; K28 side chain: C20DA-gGlu-gGlu-gGlu-gGlu-gGlu-gGlu-eLys; C-terminal NH2) [Compound 132] , and I need its recorded EC50 CreLuc hGIPR 0.5% hP.
Data returned: 0.22 nM
